Parameter MIC: see the listing below.
# Tested on: Staphylococcus aureus ATCC 6538-P
# assay overview: stability in acid medium: MIC after exposure to 1 N HCl
# Assay type: cell-based
# recorded conditions: ATCC6538; exposure time 1/2 hour, 1 N HCl, pH 1.2, Staphylococcus aureus ATCC 6538-P
measured property: MIC (mg/L)

• CC[C@H]1OC(=O)[C@H](C)[C@@H](O[C@H]2C[C@@](C)(OC)[C@@H](O)[C@H](C)O2)[C@H](C)[C@@H](O[C@@H]2O[C@H](C)C[C@H](N(C)C)[C@H]2O)[C@](C)(O)C[C@@H](C)CN[C@H](C)[C@@H](O)[C@]1(C)O [Compound I] = 0.5
• CC[C@H]1OC(=O)[C@H](C)[C@@H](O[C@H]2C[C@@](C)(OC)[C@@H](O)[C@H](C)O2)[C@H](C)[C@@H](O[C@@H]2O[C@H](C)C[C@H](N(C)C)[C@H]2O)[C@](C)(O)C[C@@H](C)C(=O)[C@H](C)[C@@H](O)[C@]1(C)O [E, erythromycin A] = 7.5
• CC[C@H]1OC(=O)[C@H](C)[C@@H](O[C@H]2C[C@@](C)(OC)[C@@H](O)[C@H](C)O2)[C@H](C)[C@@H](O[C@@H]2O[C@H](C)C[C@H](N(C)C)[C@H]2O)[C@](C)(O)C[C@@H](C)CN[C@H](C)[C@H]2OC(=O)O[C@@]21C [Compound VI] = 1
• CC[C@H]1OC(=O)[C@H](C)[C@@H](O[C@H]2C[C@@](C)(OC)[C@@H](O)[C@H](C)O2)[C@H](C)[C@@H](O[C@@H]2O[C@H](C)C[C@H](N(C)C)[C@H]2O)[C@](C)(O)C[C@@H](C)C(=NO)[C@H](C)[C@@H](O)[C@]1(C)O [EO, erythromycin A oxime, reference compound] = 0.1

----------
Parameter LD50: see the listing below.
# assay overview: acute i.v. toxicity in albino mice (Litchfield-Wilcoxon)
# recorded conditions: mouse, in vivo, iv; acute i.v., albino mice
measured property: LD50 (mg/kg)

• CC[C@H]1OC(=O)[C@H](C)[C@@H](O[C@H]2C[C@@](C)(OC)[C@@H](O)[C@H](C)O2)[C@H](C)[C@@H](O[C@@H]2O[C@H](C)C[C@H](N(C)C)[C@H]2O)[C@](C)(O)C[C@@H](C)C(=NO)[C@H](C)[C@@H](O)[C@]1(C)O [EO, erythromycin A oxime, reference compound] = 74
• CC[C@H]1OC(=O)[C@H](C)[C@@H](O[C@H]2C[C@@](C)(OC)[C@@H](O)[C@H](C)O2)[C@H](C)[C@@H](O[C@@H]2O[C@H](C)C[C@H](N(C)C)[C@H]2O)[C@](C)(O)C[C@@H](C)CN[C@H](C)[C@@H](O)[C@]1(C)O [Compound I] = 110

----------
# System: Staphylococcus epidermidis ATCC 12228
# assay overview: in vitro minimum inhibitory concentration, Staphylococcus epidermidis ATCC 12228
# Type: cell-based
# recorded conditions: ATCC12228; in vitro, Staphylococcus epidermidis ATCC 12228; read-out: minimum inhibitory concentrations (MIC)
Parameter log10 of MIC: see the listing below.
measured property: log10 of MIC (log10 of the value in µg/mL)

• CC[C@H]1OC(=O)[C@H](C)[C@@H](O[C@H]2C[C@@](C)(OC)[C@@H](O)[C@H](C)O2)[C@H](C)[C@@H](O[C@@H]2O[C@H](C)C[C@H](N(C)C)[C@H]2O)[C@](C)(O)C[C@@H](C)CN(S(=O)(=O)c2ccc(C)cc2)[C@H](C)[C@@H](O)[C@]1(C)O = 2.00
• CC[C@H]1OC(=O)[C@H](C)[C@@H](O[C@H]2C[C@@](C)(OC)[C@@H](O)[C@H](C)O2)[C@H](C)[C@@H](O[C@@H]2O[C@H](C)C[C@H](N(C)C)[C@H]2O)[C@](C)(O)C[C@@H](C)C(=NO)[C@H](C)[C@@H](O)[C@]1(C)O [EO, erythromycin A oxime, reference compound] = -1.00
• CC[C@H]1OC(=O)[C@H](C)[C@@H](O[C@H]2C[C@@](C)(OC)[C@@H](OC(C)=O)[C@H](C)O2)[C@H](C)[C@@H](O[C@@H]2O[C@H](C)C[C@H](N(C)C)[C@H]2OC(C)=O)[C@](C)(O)C[C@@H](C)CN(C(C)=O)[C@H](C)[C@@H](O)[C@]1(C)O = 2.30
• CC[C@H]1OC(=O)[C@H](C)[C@@H](O[C@H]2C[C@@](C)(OC)[C@@H](O)[C@H](C)O2)[C@H](C)[C@@H](O[C@@H]2O[C@H](C)C[C@H](N(C)C)[C@H]2O)[C@](C)(O)C[C@@H](C)CN[C@H](C)[C@@H](O)[C@]1(C)O = -0.30
• CC[C@H]1OC(=O)[C@H](C)[C@@H](O[C@H]2C[C@@](C)(OC)[C@@H](O)[C@H](C)O2)[C@H](C)[C@@H](O[C@@H]2O[C@H](C)C[C@H](N(C)C)[C@H]2O)[C@](C)(O)C[C@@H](C)CN[C@H](C)[C@H]2OC(=O)O[C@@]21C = 0.40

----------
Parameter MIC: see the listing below.
# Tested on: Staphylococcus aureus ATCC 6538-P
# assay overview: stability in acid medium: MIC after exposure to 1 N HCl
# Type: cell-based
# recorded conditions: ATCC6538; exposure time 3 hours, 1 N HCl, pH 1.2, Staphylococcus aureus ATCC 6538-P
measured property: MIC (µg/mL)

• CC[C@H]1OC(=O)[C@H](C)[C@@H](O[C@H]2C[C@@](C)(OC)[C@@H](O)[C@H](C)O2)[C@H](C)[C@@H](O[C@@H]2O[C@H](C)C[C@H](N(C)C)[C@H]2O)[C@](C)(O)C[C@@H](C)C(=O)[C@H](C)[C@@H](O)[C@]1(C)O = 10
• CC[C@H]1OC(=O)[C@H](C)[C@@H](O[C@H]2C[C@@](C)(OC)[C@@H](O)[C@H](C)O2)[C@H](C)[C@@H](O[C@@H]2O[C@H](C)C[C@H](N(C)C)[C@H]2O)[C@](C)(O)C[C@@H](C)CN[C@H](C)[C@H]2OC(=O)O[C@@]21C = 2.5
• CC[C@H]1OC(=O)[C@H](C)[C@@H](O[C@H]2C[C@@](C)(OC)[C@@H](O)[C@H](C)O2)[C@H](C)[C@@H](O[C@@H]2O[C@H](C)C[C@H](N(C)C)[C@H]2O)[C@](C)(O)C[C@@H](C)CN[C@H](C)[C@@H](O)[C@]1(C)O = 1
• CC[C@H]1OC(=O)[C@H](C)[C@@H](O[C@H]2C[C@@](C)(OC)[C@@H](O)[C@H](C)O2)[C@H](C)[C@@H](O[C@@H]2O[C@H](C)C[C@H](N(C)C)[C@H]2O)[C@](C)(O)C[C@@H](C)C(=NO)[C@H](C)[C@@H](O)[C@]1(C)O [EO, erythromycin A oxime, reference compound] = 0.5

----------
# System: Staphylococcus epidermidis ATCC 12228
# assay overview: in vitro minimum inhibitory concentration, Staphylococcus epidermidis ATCC 12228
# Assay type: cell-based
# recorded conditions: ATCC12228; in vitro, Staphylococcus epidermidis ATCC 12228; read-out: minimum inhibitory concentrations (MIC)
measured property: MIC (µg/mL)

- CC[C@H]1OC(=O)[C@H](C)[C@@H](O[C@H]2C[C@@](C)(OC)[C@@H](OC(C)=O)[C@H](C)O2)[C@H](C)[C@@H](O[C@@H]2O[C@H](C)C[C@H](N(C)C)[C@H]2OC(C)=O)[C@](C)(O)C[C@@H](C)CN(C(C)=O)[C@H](C)[C@@H](OC(C)=O)[C@]1(C)O: 200
